molecular target: T1, c-erbB-2 ECD with a Ser-Gly-His6 C-terminal fusion (UniProt P04626 23-652); experiment: SPR BIAcore
T1 construct: extracellular domain; Expressed from CHO cells, IMAC purified; coupled to a CM5 chip, coated on plates, or biotinylated with NHS-LC-biotin; also called c-erbB-2 extracellular domain; biotinylated c-erbB-2 ECD
reported_metric: Kd (C6.5)/Kd (mut)

# binder, reported_metric, recorded_number
data = [
    ("C6-B1D6 (scFv, Combined B1 and D6 mutations on C6ML3-9) scFv: QVQLLQSGAELKKPGESLKISCKGSGYSFTSYWIAWVRQMPGKGLEYMGLIYPGDSDTKYSPSFQGQVTISVDKSVSTAYLQWSSLKPSDSAVYFCARHDVGYCTDRTCAKWPEWMYPWGQGTLVTVSSGGGGSGGGGSGGGGSQSVLTQPPSVSAAPGQKVTISCSGSSSNIGNNYVSWYQQLPGTAPKLLIYGHTNRPAGVPDRFSGSKSGTSASLAISGFRSEDEADYYCASWDYTLSGWVFGGGTKLTVLG", "Kd (C6.5)/Kd (mut)", 500),
    ("C6-B1D1 (scFv, Combined B and D library mutations on C6ML3-9) scFv: QVQLLQSGAELKKPGESLKISCKGSGYSFTSYWIAWVRQMPGKGLEYMGLIYPGDSDTKYSPSFQGQVTISVDKSVSTAYLQWSSLKPSDSAVYFCARHDVGYCTDRTCAKWPEWLHVWGQGTLVTVSSGGGGSGGGGSGGGGSQSVLTQPPSVSAAPGQKVTISCSGSSSNIGNNYVSWYQQLPGTAPKLLIYGHTNRPAGVPDRFSGSKSGTSASLAISGFRSEDEADYYCASWDYTLSGWVFGGGTKLTVLG", "Kd (C6.5)/Kd (mut)", 500),
    ("C6-B1D3 (scFv, Combined B1 and D3 mutations on C6ML3-9) scFv: QVQLLQSGAELKKPGESLKISCKGSGYSFTSYWIAWVRQMPGKGLEYMGLIYPGDSDTKYSPSFQGQVTISVDKSVSTAYLQWSSLKPSDSAVYFCARHDVGYCTDRTCAKWPEWLDNWGQGTLVTVSSGGGGSGGGGSGGGGSQSVLTQPPSVSAAPGQKVTISCSGSSSNIGNNYVSWYQQLPGTAPKLLIYGHTNRPAGVPDRFSGSKSGTSASLAISGFRSEDEADYYCASWDYTLSGWVFGGGTKLTVLG", "Kd (C6.5)/Kd (mut)", 1230),
    ("C6-B47D1 (scFv, Combined B47 and D1 mutations on C6ML3-9) scFv: QVQLLQSGAELKKPGESLKISCKGSGYSFTSYWIAWVRQMPGKGLEYMGLIYPGDSDTKYSPSFQGQVTISVDKSVSTAYLQWSSLKPSDSAVYFCARHDVGYCTDRSCAKWPEWLHVWGQGTLVTVSSGGGGSGGGGSGGGGSQSVLTQPPSVSAAPGQKVTISCSGSSSNIGNNYVSWYQQLPGTAPKLLIYGHTNRPAGVPDRFSGSKSGTSASLAISGFRSEDEADYYCASWDYTLSGWVFGGGTKLTVLG", "Kd (C6.5)/Kd (mut)", 235),
    ("C6-12L1 (scFv, C6L1 with the VL CDR3 of C6ML3-12) scFv: QVQLLQSGAELKKPGESLKISCKGSGYSFTSYWIAWVRQMPGKGLEYMGLIYPGDSDTKYSPSFQGQVTISVDKSVSTAYLQWSSLKPSDSAVYFCARHDVGYCSSSNCAKWPEYFQHWGQGTLVTVSSGGGGSGGGGSGGGGSQSVLTQPPSVSGAPGQWVTISCSGSSSNIGNNYVSWYQQLPGTAPKLLIYDNNKRPSGVPDRFSGSQSGTSASLAISGLRSEDEADYYCAAWDYSRSGWVFGGGTKLTVLG", "Kd (C6.5)/Kd (mut)", 84),
]
